B1: WDR41 (parent)
chain: WTMQAYERNFWDPSPQLDTQQEIK

- Variants of: B1
- Assay details: protein stability index of a GFP-peptide fusion (GPS, HEK-293T) (PSI 1-6); higher = more stable;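 also: lentivirally expressed fusions sorted by FACS into six bins by GFP to DsRed ratio, PSI derived from sequencing read proportions per bin multiplied by bin number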
- Condition info: c terminus: a fixed tail appended
Parameter: protein stability index. Scope: all listed entries.
API doc: respond with a numeric literal and nothing else, no unit.

1. WTMQAYERNFWDPSPQLDSQQEIK: 2.91
2. WTMQAYERNFWDPSPQLDTQQEIV: 2.17
3. WTMQAYERNFMDPSPQLDTQQEIK: 3.58
4. WTMQAYERNFWDPSPFLDTQQEIK: 2.5
5. WTMQAYERNTWDPSPQLDTQQEIK: 3.89

Recorded protein stability index (variant WTMQAYERNFWDPSPQEDTQQEIK ): 2.9

protein stability index measured on WTMQAYERNFADPSPQLDTQQEIK = 4.26

Memo: WTMQAYERNFWDPSPQYDTQQEIK , reported protein stability index: 2.49

Noted for WTMVAYERNFWDPSPQLDTQQEIK : its protein stability index reads 2.25
